The origin of these recorded values is patent US10435399B2.

Molecular target: HDAC6 enzyme (Homo sapiens, UniProt Q9UBN7)
Construct: transducing full length HDAC6 gene into Sf-9 insect cells; GST; purchased SignalChem; host or cells: Sf-9 insect cells
Sequence (Q9UBN7 1-1215): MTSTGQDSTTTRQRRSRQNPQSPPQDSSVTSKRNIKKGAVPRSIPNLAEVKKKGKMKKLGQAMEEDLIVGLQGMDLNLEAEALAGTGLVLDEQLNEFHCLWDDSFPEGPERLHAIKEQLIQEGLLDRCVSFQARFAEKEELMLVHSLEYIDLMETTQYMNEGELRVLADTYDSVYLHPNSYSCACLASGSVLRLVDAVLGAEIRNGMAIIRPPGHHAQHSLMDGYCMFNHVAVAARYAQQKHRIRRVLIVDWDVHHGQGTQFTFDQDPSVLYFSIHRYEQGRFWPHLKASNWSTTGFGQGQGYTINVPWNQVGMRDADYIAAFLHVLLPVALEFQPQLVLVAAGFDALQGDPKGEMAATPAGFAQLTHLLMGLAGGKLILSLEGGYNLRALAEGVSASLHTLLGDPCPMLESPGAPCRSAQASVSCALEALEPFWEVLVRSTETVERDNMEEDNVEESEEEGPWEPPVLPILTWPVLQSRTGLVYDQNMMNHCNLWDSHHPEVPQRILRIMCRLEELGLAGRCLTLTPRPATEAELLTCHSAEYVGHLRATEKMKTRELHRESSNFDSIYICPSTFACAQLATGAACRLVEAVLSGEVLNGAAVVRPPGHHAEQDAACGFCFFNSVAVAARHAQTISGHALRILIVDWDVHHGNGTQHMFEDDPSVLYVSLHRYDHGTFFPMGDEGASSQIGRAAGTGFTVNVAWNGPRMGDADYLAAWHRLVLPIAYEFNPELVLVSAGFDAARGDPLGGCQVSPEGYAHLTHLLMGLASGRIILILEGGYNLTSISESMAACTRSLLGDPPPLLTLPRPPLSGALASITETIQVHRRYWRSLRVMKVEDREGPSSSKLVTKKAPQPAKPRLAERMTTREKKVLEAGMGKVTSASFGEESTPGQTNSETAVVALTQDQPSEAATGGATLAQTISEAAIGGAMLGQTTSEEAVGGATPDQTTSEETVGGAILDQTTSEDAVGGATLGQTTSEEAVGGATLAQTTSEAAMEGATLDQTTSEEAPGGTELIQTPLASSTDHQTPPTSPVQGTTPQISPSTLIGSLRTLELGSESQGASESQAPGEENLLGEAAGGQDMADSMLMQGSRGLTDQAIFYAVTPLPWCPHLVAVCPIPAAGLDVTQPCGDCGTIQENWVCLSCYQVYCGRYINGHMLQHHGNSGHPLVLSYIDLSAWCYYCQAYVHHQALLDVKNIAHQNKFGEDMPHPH
Test: HDAC6 enzyme inhibitory activity (HDAC-Glo I/II Assay kit)
Assay type: biochemical
Conditions: 10 μM; wells without enzyme = 100% inhibition; read-out: HDAC6 inhibitory rate (%) (10 μM)
measurement_label: inhibition at 10 µM
Answer format reminder: number followed by unit.

These recorded examples may help you get a feel for the data.
* N[C@@H]1[C@H](N2Cc3ccc(-c4nnc(C(F)F)o4)cc3C2=O)CCCC1(F)F | 88%
* COC(=O)N1CC[C@@H](N2Cc3ncc(-c4nnc(C(F)F)o4)cc3C2=O)[C@H](c2ccc(F)c(F)c2)C1 | 99%
* CC(C)(C(=O)N[C@@H]1CCCC[C@H]1N1Cc2ccc(-c3nnc(C(F)F)o3)cc2C1=O)C(F)(F)F | 100%
* O=C1c2cc(-c3nnc(C(F)F)o3)ccc2CN1C[C@H]1COCCN1C(=O)C1CC1 | 99%
* O=C1c2cc(-c3nnc(C(F)F)o3)ccc2CN1[C@@H]1CCCC[C@@H]1NC(=O)C1(C(F)(F)F)CC1 | 101%

input: // returns reported inhibition at 10 µM for input `CC(F)(F)C(=O)N[C@H]1CC(F)(F)CC[C@H]1N1Cc2ccc(-c3nnc(C(F)F)o3)cc2C1=O`
output: 100%

input: Could you tell me which inhibition at 10 µM is on file for `Cc1ccccc1-c1ccccc1N1Cc2ccc(-c3nnc(C(F)F)o3)cc2C1=O` ?
output: 99%

input: For `O=C(N[C@@H]1CCCC[C@H]1N1Cc2ccc(-c3nnc(C(F)F)o3)cc2C1=O)OCC(F)F` , what is its reported inhibition at 10 µM?
output: 99%

input: # inhibition at 10 µM lookup, item `O=C1c2cc(-c3nnc(C(F)F)o3)cnc2CN1[C@@H]1COCC[C@H]1Oc1c(F)cccc1F`
output: 99%

input: What measured inhibition at 10 µM goes with `O=C1c2cc(-c3nnc(C(F)F)o3)ccc2CN1c1ccccc1-c1ccccc1OC(F)(F)F` ?
output: 100%

input: Looking for the measured inhibition at 10 µM of `CC(C)(C)OC(=O)N[C@H]1CCCC[C@H]1N1Cc2ccc(-c3nnc(C(F)F)o3)cc2C1=O` , can you help?
output: 100%

input: Entry `O=C1c2cc(-c3nnc(C(F)F)o3)ccc2CN1c1cccc(F)c1Br` : reported inhibition at 10 µM = ?
output: 97%

input: Look up inhibition at 10 µM: `O=C1c2cc(-c3nnc(C(F)F)o3)ccc2CN1c1ccc(F)cc1-c1cnn(C(F)F)c1`
output: 101%

input: Fill blank: measured inhibition at 10 µM of the molecule `O=C1c2cc(-c3nnc(C(F)F)o3)ccc2CN1[C@@H]1CCCC[C@H]1c1nnc2ccccn12` is ____.
output: 100%

input: Would you kindly share the measured inhibition at 10 µM for `Cc1ccc(S(=O)(=O)N2CCOC[C@@H]2CN2Cc3ccc(-c4nnc(C(F)F)o4)cc3C2=O)cc1` ?
output: 99%
